Entry source: ChEMBL document CHEMBL2203045

A collection of molecules and their measured viability at 25 µM
Assay: Cytotoxicity against HEK293T cells assessed as cellular growth at 25 uM by MTT assay
Format: cell-based, HEK-293T
Conditions: human, read-out: Activity
Field format: number, assumed %, no unit text.

{"STRUCTURE_AS_SMILES": "O=C(Oc1c(Cl)cc(Cl)cc1C(=O)Nc1ncc([N+](=O)[O-])s1)c1ccccc1", "PARAMETER": "viability at 25 µM", "NUMERIC_RESULT": 100}
{"STRUCTURE_AS_SMILES": "O=C(Nc1ncc([N+](=O)[O-])s1)c1ccc(-c2ccc(Cl)cc2)o1", "PARAMETER": "viability at 25 µM", "NUMERIC_RESULT": 75}

Request: Need viability at 25 µM of COc1ccc(OC(C)=O)c(C(=O)Nc2ncc([N+](=O)[O-])s2)c1 , thanks.
Response: 100

Request: Give its viability at 25 µM value. Item: CC(=O)Oc1c(C(=O)Nc2ncc([N+](=O)[O-])s2)cc(C(C)C)cc1C(C)C
Response: 45.9

Request: Given the molecule CC(C)c1cc(C(=O)Nc2ncc([N+](=O)[O-])s2)c(O)c(C(C)C)c1 , what is its reported viability at 25 µM?
Response: 29.4

Request: Entry O=C(Nc1ncc([N+](=O)[O-])s1)c1ccc(-c2ccc(Br)cc2)o1 has what viability at 25 µM?
Response: 89.1

Request: // viability at 25 µM lookup, key: COc1ccc(OC(=O)c2ccccc2)c(C(=O)Nc2ncc([N+](=O)[O-])s2)c1
Response: 100

Request: Please report the recorded viability at 25 µM for O=C(Nc1ncc([N+](=O)[O-])s1)c1cc(Cl)ccc1O .
Response: 100

Request: Need viability at 25 µM, item O=C(Nc1ncc([N+](=O)[O-])s1)c1ccc(-c2ccc([N+](=O)[O-])cc2)o1
Response: 88.4

Request: What measured viability at 25 µM goes with CC(=O)Oc1ccc(Cl)cc1C(=O)Nc1ncc([N+](=O)[O-])s1 ?
Response: 59.5
